// values below are reported Papp B→A
assayName: in vitro
recordedConditions: human, Caco-2
Description: Apparent permeability from basolateral to apical side in human Caco2 cells by LC/MS analysis
Only the number, expressed in ×10⁻⁶ cm/s, is required.

> print(dat)
                             compoundsmiles  testvalue
1  NCC(=O)N1CCn2c(nc(-c3ccc(F)cc3)c2Nc2ccc(F)c(F)c2)C1       2.99
2  CC(C)(N)C(=O)N1CCn2c(nc(-c3ccc(F)cc3)c2Nc2ccc(F)c(F)c2)C1       1.03
3  NCC(=O)N1CCn2c(nc(-c3ccc(F)cc3)c2Nc2ccc(Cl)cc2)C1       1.25
4  CC(C)(N)C(=O)N1CCn2c(nc(-c3ccc(F)cc3)c2Nc2ccc(Cl)c(F)c2)C1       0.87
5  NCC(=O)N1CCn2c(nc(-c3cccc(F)c3)c2Nc2ccc(F)cc2)C1       2.32

Annotate the compound `CC(C)(N)C(=O)N1CCn2c(nc(-c3ccc(F)cc3)c2Nc2ccc(Cl)cc2)C1` with its measured Papp B→A.
1.86

Annotate the compound `CC(C)(N)C(=O)N1CCn2c(nc(-c3ccc(F)cc3)c2Nc2ccc(F)cc2)C1` with its measured Papp B→A.
8.38
